ASSAY: Apparent permeability of compound across basolateral to apical side in MDCK cells
Format: ADME, cell-based, Canis lupus familiaris
STUDY CONDITIONS: dog
READOUT: Papp B→A (×10⁻⁶ cm/s)
Give bare numbers, in ×10⁻⁶ cm/s.

Return value of Papp B→A for input Cc1cccc(C(=O)N2CCC3(CCNCC3)CC2)c1 , no commentary. 15

----------
TESTED TARGET: Gamma-aminobutyric acid receptor subunit alpha-4/beta-1/delta (Homo sapiens, UniProt O14764+P18505+P48169)
Sequence (P48169 whole entry): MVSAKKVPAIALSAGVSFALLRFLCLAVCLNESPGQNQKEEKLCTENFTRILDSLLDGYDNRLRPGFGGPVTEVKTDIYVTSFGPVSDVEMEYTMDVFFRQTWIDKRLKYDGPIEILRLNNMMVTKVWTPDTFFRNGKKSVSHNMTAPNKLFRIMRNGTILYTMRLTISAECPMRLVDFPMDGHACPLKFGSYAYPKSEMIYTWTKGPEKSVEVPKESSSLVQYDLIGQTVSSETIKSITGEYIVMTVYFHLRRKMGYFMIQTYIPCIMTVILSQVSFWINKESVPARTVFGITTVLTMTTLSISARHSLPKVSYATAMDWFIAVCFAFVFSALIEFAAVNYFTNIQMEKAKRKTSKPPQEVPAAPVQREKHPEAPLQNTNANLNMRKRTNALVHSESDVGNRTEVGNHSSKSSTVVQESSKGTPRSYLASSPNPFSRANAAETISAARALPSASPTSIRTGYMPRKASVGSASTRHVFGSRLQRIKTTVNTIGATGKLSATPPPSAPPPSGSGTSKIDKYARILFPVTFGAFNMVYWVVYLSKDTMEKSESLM
Sequence (O14764 whole entry): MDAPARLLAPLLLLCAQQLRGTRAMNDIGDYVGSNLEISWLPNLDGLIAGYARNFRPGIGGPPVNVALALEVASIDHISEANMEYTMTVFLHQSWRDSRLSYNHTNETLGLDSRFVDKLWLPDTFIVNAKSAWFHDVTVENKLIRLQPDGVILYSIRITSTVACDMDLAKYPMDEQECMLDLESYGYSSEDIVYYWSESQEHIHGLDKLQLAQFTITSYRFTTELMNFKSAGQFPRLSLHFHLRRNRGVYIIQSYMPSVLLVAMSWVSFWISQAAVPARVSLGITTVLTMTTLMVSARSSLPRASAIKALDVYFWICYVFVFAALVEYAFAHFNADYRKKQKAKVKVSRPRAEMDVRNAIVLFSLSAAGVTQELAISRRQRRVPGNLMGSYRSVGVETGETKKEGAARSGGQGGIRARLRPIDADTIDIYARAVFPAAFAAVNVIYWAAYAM
Sequence (P18505 whole entry): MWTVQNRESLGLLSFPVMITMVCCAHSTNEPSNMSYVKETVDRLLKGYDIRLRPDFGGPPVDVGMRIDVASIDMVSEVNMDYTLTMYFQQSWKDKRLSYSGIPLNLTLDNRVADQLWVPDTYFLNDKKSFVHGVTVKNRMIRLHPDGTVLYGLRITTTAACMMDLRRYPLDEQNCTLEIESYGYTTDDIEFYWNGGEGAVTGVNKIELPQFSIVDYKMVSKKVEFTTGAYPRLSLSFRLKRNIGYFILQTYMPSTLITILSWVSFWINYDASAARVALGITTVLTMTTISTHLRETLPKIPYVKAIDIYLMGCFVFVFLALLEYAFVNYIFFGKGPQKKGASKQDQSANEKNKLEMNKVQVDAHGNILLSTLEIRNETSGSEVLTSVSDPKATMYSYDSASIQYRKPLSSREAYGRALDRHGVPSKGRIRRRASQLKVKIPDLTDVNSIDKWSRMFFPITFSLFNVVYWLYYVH
ASSAY: Antagonist activity at human alpha4beta1delta GABAA receptor expressed in HEK293 Flp-In cells by FMP assay
Type: cell-based, Flp-In-293
READOUT: pIC50
Give bare numbers, as −log10 of the molar value.

SUBSTANCE SMILES: Cc1ccc(C(=O)N2CCC3(CCNCC3)CC2)cc1
TEST VALUE: 5.89

Shift focus to the following entry.
Return value of pIC50 for input Cc1cccc(C(=O)N2CCC3(CCNCC3)CC2)c1 , no commentary. 6.71

----------
TESTED TARGET: GABA A receptor alpha-3/beta-2/gamma-2 (Homo sapiens, UniProt P18507+P34903+P47870)
Sequence (P47870 whole entry): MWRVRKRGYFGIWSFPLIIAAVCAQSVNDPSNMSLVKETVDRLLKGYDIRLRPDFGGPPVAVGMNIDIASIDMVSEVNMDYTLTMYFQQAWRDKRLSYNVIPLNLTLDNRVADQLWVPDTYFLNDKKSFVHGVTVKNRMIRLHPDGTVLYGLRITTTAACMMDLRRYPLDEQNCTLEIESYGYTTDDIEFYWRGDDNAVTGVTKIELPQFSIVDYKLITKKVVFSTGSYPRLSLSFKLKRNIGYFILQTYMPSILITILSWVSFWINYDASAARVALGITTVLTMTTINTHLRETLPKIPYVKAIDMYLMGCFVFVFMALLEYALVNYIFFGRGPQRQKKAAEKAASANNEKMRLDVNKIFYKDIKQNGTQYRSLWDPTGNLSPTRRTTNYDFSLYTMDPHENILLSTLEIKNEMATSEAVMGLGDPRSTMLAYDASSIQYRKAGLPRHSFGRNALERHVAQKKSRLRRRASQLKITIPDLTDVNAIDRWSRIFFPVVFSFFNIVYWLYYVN
Sequence (P18507 whole entry): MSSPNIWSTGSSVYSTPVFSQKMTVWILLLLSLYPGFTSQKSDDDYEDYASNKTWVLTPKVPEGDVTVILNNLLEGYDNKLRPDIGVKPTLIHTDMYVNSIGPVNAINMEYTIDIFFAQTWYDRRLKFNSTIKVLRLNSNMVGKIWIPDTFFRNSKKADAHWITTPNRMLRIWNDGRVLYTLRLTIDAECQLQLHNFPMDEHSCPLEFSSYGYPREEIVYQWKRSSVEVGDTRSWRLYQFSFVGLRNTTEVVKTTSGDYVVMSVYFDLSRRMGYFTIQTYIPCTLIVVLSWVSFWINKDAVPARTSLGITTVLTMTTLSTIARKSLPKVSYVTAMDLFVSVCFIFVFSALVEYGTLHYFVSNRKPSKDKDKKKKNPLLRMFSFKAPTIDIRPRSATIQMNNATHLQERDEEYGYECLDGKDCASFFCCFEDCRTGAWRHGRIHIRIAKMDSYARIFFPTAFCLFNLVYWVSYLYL
Sequence (P34903 whole entry): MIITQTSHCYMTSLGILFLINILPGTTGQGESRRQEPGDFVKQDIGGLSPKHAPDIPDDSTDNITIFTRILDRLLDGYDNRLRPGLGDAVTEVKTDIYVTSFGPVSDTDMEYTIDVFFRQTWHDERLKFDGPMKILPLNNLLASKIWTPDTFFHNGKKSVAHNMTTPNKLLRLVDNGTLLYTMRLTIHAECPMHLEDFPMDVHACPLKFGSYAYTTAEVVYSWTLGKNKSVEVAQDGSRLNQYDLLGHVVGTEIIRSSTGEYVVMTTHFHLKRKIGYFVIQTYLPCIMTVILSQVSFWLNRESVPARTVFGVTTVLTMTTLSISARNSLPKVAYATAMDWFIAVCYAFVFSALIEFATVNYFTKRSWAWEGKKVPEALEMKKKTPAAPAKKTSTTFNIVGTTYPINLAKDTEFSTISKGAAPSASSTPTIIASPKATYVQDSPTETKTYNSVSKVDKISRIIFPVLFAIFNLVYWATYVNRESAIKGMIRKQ
ASSAY: Antagonist activity at human alpha3beta2gamma2 GABAA receptor expressed in HEK293 cells by FMP assay
Format: cell-based
READOUT: IC50 (µM)
Give bare numbers, in µM.

SUBSTANCE SMILES: Cc1ccc(C(=O)N2CCC3(CCNCC3)CC2)cc1
READOUT: IC50
TEST VALUE: 3.57

Shift focus to the following entry.
Return value of IC50 for input Cc1cccc(C(=O)N2CCC3(CCNCC3)CC2)c1 , no commentary. 0.56

----------
TESTED TARGET: GABA-A receptor; alpha-1/beta-2/gamma-2 (Homo sapiens, UniProt P14867+P18507+P47870)
Sequence (P14867 whole entry): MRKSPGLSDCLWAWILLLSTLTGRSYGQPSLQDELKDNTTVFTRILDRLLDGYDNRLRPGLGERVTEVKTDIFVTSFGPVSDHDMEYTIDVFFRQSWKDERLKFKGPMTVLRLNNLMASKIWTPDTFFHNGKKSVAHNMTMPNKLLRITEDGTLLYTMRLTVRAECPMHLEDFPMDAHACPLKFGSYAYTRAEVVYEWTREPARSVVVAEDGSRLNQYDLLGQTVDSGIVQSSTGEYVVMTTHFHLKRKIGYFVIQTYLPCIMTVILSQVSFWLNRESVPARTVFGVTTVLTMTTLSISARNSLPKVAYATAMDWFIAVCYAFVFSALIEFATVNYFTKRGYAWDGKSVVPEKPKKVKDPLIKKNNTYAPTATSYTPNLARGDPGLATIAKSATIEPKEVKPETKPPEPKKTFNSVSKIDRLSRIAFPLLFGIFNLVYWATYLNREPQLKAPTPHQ
Sequence (P47870 whole entry): as the sequence (P47870 whole entry) above
Sequence (P18507 whole entry): as the sequence (P18507 whole entry) above
ASSAY: Antagonist activity at human alpha1beta2gamma2 GABAA receptor expressed in HEK293 cells by FMP assay
Format: cell-based
Hi there, I'd appreciate the recorded IC50 for every entry that follows.
Numbers only, in µM.

SUBSTANCE SMILES: Cc1ccc(C(=O)N2CCC3(CCNCC3)CC2)cc1
UNIT TEXT: µM
IC50: 10

Return value of IC50 for input Cc1cccc(C(=O)N2CCC3(CCNCC3)CC2)c1 , no commentary. 2.18

----------
ASSAY: Apparent permeability of compound across apical to basolateral side in MDCK cells
Format: ADME, cell-based, Canis lupus familiaris
STUDY CONDITIONS: dog
READOUT: Papp A→B (×10⁻⁶ cm/s)
Answers are plain numbers, in ×10⁻⁶ cm/s.

Return value of Papp A→B for input Cc1cccc(C(=O)N2CCC3(CCNCC3)CC2)c1 , no commentary. 1.3

----------
TESTED TARGET: Gamma-aminobutyric acid receptor subunit alpha-4/beta-1/delta (Homo sapiens, UniProt O14764+P18505+P48169)
ASSAY: Antagonist activity at recombinant human alpha4beta1delta GABAA receptor expressed in HEK293 Flp-In cells by FMP assay
Format: cell-based, Flp-In-293
READOUT: pIC50
Numbers only, as −log10 of the molar value.

SUBSTANCE SMILES: CC(=O)Nc1cccc(C(=O)N2CCC3(CCNCC3)CC2)c1
pIC50: 5.99

Shift focus to the following entry.
Return value of pIC50 for input O=C(Nc1cccc(C(=O)N2CCC3(CCNCC3)CC2)c1)c1cccs1 , no commentary. 7.06
